Catalogue of inhibition readings, one per entry.
measurement.target: Hexose transporter 1 (Plasmodium falciparum)
test.method.notes: ST_JUDE_LEISH: Cytotoxicity at 2uM final concentration against transgenic Leishmania Mexicana promastigotes LmPfHT that are glucose transport deficient and complemented with the Plasmodium falciparum hexose transporter. Activity is measured by DNA content using SYBR green in vitro
Type: functional
Expressed in %, but write only the number.

>>> result_number("O=C(Nc1ccc(-c2cccc(-c3nc4cc(C(F)(F)F)ccc4[nH]3)c2)cc1)Nc1ccc(F)c(F)c1F")
0.04
>>> result_number("c1ccc(CCNCc2ccc(-c3cccc(-c4nc5ccccc5[nH]4)c3)cc2)nc1")
3.7
>>> result_number("COCCNCc1cccc(-c2ccc3c(Nc4cc(O)c(Cl)cc4F)ccnc3c2)c1")
3.2
>>> result_number("Cc1ccc(NC(=O)c2ccc(CN3CCCN(CCC(C)C)CC3)cc2)cc1F")
7.04
>>> result_number("CCC(C)NCCC(c1ccccc1)c1ccccc1O (stereo not given)")
4.69
>>> result_number("CC(C)Nc1nc(NC2CCCCC2)nc(N2CCCCCCC2)n1")
17.4
>>> result_number("Cc1ccc(-c2nnc(Nc3ccc(C(=O)N4CCCCC4)cc3)c3ccccc23)cc1S(=O)(=O)NCC1CCCO1 (stereo not given)")
21.1
>>> result_number("COc1ccc(C)cc1NC(=O)CSc1nc2cccnc2n1C1CCCCC1")
4.88
>>> result_number("CC(C)CCN1CCC(Oc2ccc(NC(=O)c3ccc(F)cc3)cc2Cl)CC1")
-4.4

Moving on to the next compound.
Reported inhibition ( Cc1[nH]c(C)c(-c2ccc(OCc3ccc(OC(F)(F)F)cc3)nc2)c(=O)c1Cl ) = 15.2

---

Some molecules, each annotated with its measured inhibition.
measurement.target: Solute carrier family 2, facilitated glucose transporter member 1 (Homo sapiens)
test.method.notes: ST_JUDE_LEISH: Cytotoxicity at 2uM final concentration against transgenic Leishmania Mexicana promastigotes LmGLUT1 that are glucose transport deficient and complemented with the human glucose transporter GLUT1. Activity is measured by DNA content using SYBR green in vitro
Format: functional
Express it in %; write the number only.

>>> result_number("CCCCCC(C)C(C)c1cc(OC(N)=O)c2c(c1)OC(C)(C)C=C2c1ccncc1 (stereo unspecified)")
-3.81

// molecule COc1ccc2nccc(NC(=O)C3CCC(NCc4cnc(SC)c([N+](=O)[O-])c4)CC3)c2n1 (stereo unspecified) , assay Solute carrier family 2, facilitated glucose transporter member 1 (Homo sapiens), inhibition value: 10.5

Hey, Solute carrier family 2, facilitated glucose transporter member 1 (Homo sapiens) data for O=C(c1cccc(-c2ccc(-c3nc4cc(C(F)(F)F)ccc4[nH]3)cc2)c1)N1CCCCC1CN1CCC(O)C1 (stereo unspecified) : inhibition came out at 0.99

The molecule O=C(NCC1CCC(C(=O)NCc2cccc3ccccc23)CC1)c1ccc(O)c(-c2ccc(Cl)c(Cl)c2)c1 (stereo unspecified) , when measured on Solute carrier family 2, facilitated glucose transporter member 1 (Homo sapiens), yielded inhibition of 5.23

inhibition of CC(=O)C1=NN(c2ccc(Cl)cc2)C(c2cccs2)N1c1ccccc1 (stereo unspecified) , assay on Solute carrier family 2, facilitated glucose transporter member 1 (Homo sapiens), is 1.62

The value of inhibition recorded for O=C(Nc1ccc(C(F)(F)F)cc1)c1ccc(S(=O)(=O)NC2CCN(Cc3ccccc3)C2)cc1 (stereo unspecified) when tested on Solute carrier family 2, facilitated glucose transporter member 1 (Homo sapiens) reads 5.58

Given the molecule O=C(/C=C/c1ccc(Cl)c(Cl)c1)NCCCCCN1CCC(NC(=O)Nc2cc(F)cc(F)c2)CC1 and test system Solute carrier family 2, facilitated glucose transporter member 1 (Homo sapiens), the measured inhibition is -0.2

Entry O=S(=O)(c1ccc(OCc2ccc(Cl)cc2)cc1)c1cc2c(c(-c3ccc(F)cc3)c1)CCN(CC1CC1)CC2 ; assay system Solute carrier family 2, facilitated glucose transporter member 1 (Homo sapiens); inhibition recorded at 2.2

I looked up COc1ccc(N2CCN(CCCOc3ccc(NC(=O)c4cc(Cl)cc(Cl)c4)cc3)CC2)c(OC)c1 and its inhibition for Solute carrier family 2, facilitated glucose transporter member 1 (Homo sapiens) was 6.5

# lookup: Cc1cc(NCCCCCCN)nc(Nc2ccc(Cl)cc2)n1 on Solute carrier family 2, facilitated glucose transporter member 1 (Homo sapiens), inhibition = 5.87

Reading of inhibition for Clc1cc(Nc2ncnc3sc(C#C[C@H]4CCCN4)cc23)ccc1OCc1cccnc1Cl with Solute carrier family 2, facilitated glucose transporter member 1 (Homo sapiens): 3.83

Where these numbers come from: ChEMBL document CHEMBL3433997
